Listed compounds paired with reported TBIL
species on record: Rattus norvegicus; assay: Open TG-GATES - Regimen: Single; type: toxicity, organism-based, Sprague-Dawley; design: regimen Single, gender Male, age 6 weeks; details: in vivo, po, 0 mg/kg, 9 h, tissue Plasma, route gavage, dose level Control
METRIC: TBIL

| COMPOUND | RESULT |
| --- | --- |
| CN1C(=O)CCS(=O)(=O)C1c1ccc(Cl)cc1 (stereo unspecified) | 0.044 mg/dL |
| Brc1ccccc1 | 0.052 mg/dL |
| COC(=O)C1=C(C)NC(C)=C(C(=O)OC)C1c1ccccc1[N+](=O)[O-] | 0.04 mg/dL |
| CS(=O)(=O)O.Cc1ccc(NC(=O)c2ccc(CN3CCN(C)CC3)cc2)cc1Nc1nccc(-c2cccnc2)n1 [IMATINIB MESYLATE] | 0.016 mg/dL |
| CC(C)NNC(=O)c1ccncc1 | 0.0175 mg/dL |
| Cc1nnc2n1-c1ccc(Cl)cc1C(c1ccccc1Cl)=NC2 | 0.062 mg/dL |

* * *

organism: Rattus norvegicus; assay: Open TG-GATES - Regimen: Single; assay type: toxicity, organism-based, Sprague-Dawley; set-up: regimen Single, gender Male, age 6 weeks; conditions: in vivo, po, 1000 mg/kg, 9 h, tissue Plasma, route gavage, dose level High
ALT overview
METRIC: ALT (IU/L)

| STRUCTURE STRING | UNITS OF MEASURE | NUMBER |
| --- | --- | --- |
| CN/C(=N/CCSCc1nc[nH]c1C)NC#N | IU/L | 32.8 |
| CNC(=C[N+](=O)[O-])NCCSCc1ccc(CN(C)C)o1 | IU/L | 36 |
| Cc1nnc2n1-c1ccc(Cl)cc1C(c1ccccc1Cl)=NC2 | IU/L | 41.8 |
| O=C(OC[C@H]1O[C@@H](OC(=O)c2cc(O)c(O)c(OC(=O)c3cc(O)c(O)c(O)c3)c2)[C@H](OC(=O)c2cc(O)c(O)c(OC(=O)c3cc(O)c(O)c(O)c3)c2)[C@@H](OC(=O)c2cc(O)c(O)c(OC(=O)c3cc(O)c(O)c(O)c3)c2)[C@@H]1OC(=O)c1cc(O)c(O)c(OC(=O)c2cc(O)c(O)c(O)c2)c1)c1cc(O)c(O)c(OC(=O)c2cc(O)c(O)c(O)c2)c1 | IU/L | 42.4 |

* * *

Reported AST is given for each of the following molecules.
organism: Rattus norvegicus; assay: Open TG-GATES - Regimen: Daily Repeat; assay type: toxicity, organism-based, Sprague-Dawley; parameters: regimen Daily Repeat, gender Male, age 6 weeks; conditions: in vivo, po, 100 mg/kg, […], tissue Plasma, route gavage, dose level Low, time 28 day
METRIC: AST (IU/L)

| STRUCTURE STRING | METRIC | UNITS OF MEASURE | NUMBER |
| --- | --- | --- | --- |
| CNC(=C[N+](=O)[O-])NCCSCc1ccc(CN(C)C)o1 | AST | IU/L | 63.4 |
| CN/C(=N/CCSCc1nc[nH]c1C)NC#N | AST | IU/L | 66.4 |
| CCOc1ccc(NC(C)=O)cc1 | AST | IU/L | 60.8 |
| COC(=O)C1=C(C)NC(C)=C(C(=O)OC)C1c1ccccc1[N+](=O)[O-] | AST | IU/L | 71.2 |
| O=C(OC[C@H]1O[C@@H](OC(=O)c2cc(O)c(O)c(OC(=O)c3cc(O)c(O)c(O)c3)c2)[C@H](OC(=O)c2cc(O)c(O)c(OC(=O)c3cc(O)c(O)c(O)c3)c2)[C@@H](OC(=O)c2cc(O)c(O)c(OC(=O)c3cc(O)c(O)c(O)c3)c2)[C@@H]1OC(=O)c1cc(O)c(O)c(OC(=O)c2cc(O)c(O)c(O)c2)c1)c1cc(O)c(O)c(OC(=O)c2cc(O)c(O)c(O)c2)c1 | AST | IU/L | 64.6 |
| Cc1nnc2n1-c1ccc(Cl)cc1C(c1ccccc1Cl)=NC2 | AST | IU/L | 64.8 |

Reference for the values: ChEMBL document CHEMBL3885861
